tested on: 876862-298-R-J1-PDC complex spheroids, viability % test/control; assay: Anticancer human tumor 876862-298-R-J1-PDC patient-derived endometrial carcinoma cell line growth inhibition [CLK]; conditions: second compound 3.16 µM; first compound 0.316 µM; hits give low values;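 note: spheroids exposed to drugs for 7 days before readout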
# note: exactly 9% is not below, so it is No; use Yes for viability, T/C strictly under it

| Compound | System | Category label |
| --- | --- | --- |
| Nc1ccn(C2OC(CO)C(O)C2(F)F)c(=O)n1 (configuration not stated) + CN1CCN(c2cc(C(=O)Nc3cc4cc(-c5cnn(C)c5)ccc4cn3)ccn2)CC1 | 876862-298-R-J1-PDC complex spheroids, viability % test/control | Yes |
| COc1ccc([C@@H](O)c2cc(-c3ncnc4cc(N5CCOCC5)ccc34)c(F)cc2Cl)nn1 + CN1CCN(c2cc(C(=O)Nc3cc4cc(-c5cnn(C)c5)ccc4cn3)ccn2)CC1 | 876862-298-R-J1-PDC complex spheroids, viability % test/control | Yes |
| C=CC(=O)N1CCN(c2nc(=O)n(-c3c(C)ccnc3C(C)C)c3nc(-c4c(O)cccc4F)c(F)cc23)C(C)C1 (configuration not stated) + CN1CCN(c2cc(C(=O)Nc3cc4cc(-c5cnn(C)c5)ccc4cn3)ccn2)CC1 | 876862-298-R-J1-PDC complex spheroids, viability % test/control | Yes |
| CCc1c2c(nc3ccc(O)cc13)-c1cc3c(c(=O)n1C2)COC(=O)[C@]3(O)CC + CNC(=O)c1ccc(Nc2nc(OC3CCCC3)c3c(-c4ccc5nc(C)oc5c4)c[nH]c3n2)c(OC)c1 | 876862-298-R-J1-PDC complex spheroids, viability % test/control | Yes |
| COc1ccc([C@@H](O)c2cc(-c3ncnc4cc(N5CCOCC5)ccc34)c(F)cc2Cl)nn1 + CNC(=O)c1ccc(Nc2nc(OC3CCCC3)c3c(-c4ccc5nc(C)oc5c4)c[nH]c3n2)c(OC)c1 | 876862-298-R-J1-PDC complex spheroids, viability % test/control | No |
| CC1(C)CCC(CN2CCN(c3ccc(C(=O)NS(=O)(=O)c4ccc(NCC5CCOCC5)c([N+](=O)[O-])c4)c(Oc4cnc5[nH]ccc5c4)c3)CC2)=C(c2ccc(Cl)cc2)C1 + CNC(=O)c1ccc(Nc2nc(OC3CCCC3)c3c(-c4ccc5nc(C)oc5c4)c[nH]c3n2)c(OC)c1 | 876862-298-R-J1-PDC complex spheroids, viability % test/control | No |
| O=C(c1cc(Cc2n[nH]c(=O)c3ccccc23)ccc1F)N1CCN(C(=O)C2CC2)CC1 + CN1CCN(c2cc(C(=O)Nc3cc4cc(-c5cnn(C)c5)ccc4cn3)ccn2)CC1 | 876862-298-R-J1-PDC complex spheroids, viability % test/control | Yes |
| COC1C=CCC(C)C(C)S(=O)(=O)NC(=O)c2ccc3c(c2)N(CC2CCC21)CC1(CCCc2cc(Cl)ccc21)CO3 (configuration not stated) + CN1CCN(c2cc(C(=O)Nc3cc4cc(-c5cnn(C)c5)ccc4cn3)ccn2)CC1 | 876862-298-R-J1-PDC complex spheroids, viability % test/control | Yes |
| C=C(F)C(=O)N1CCN(c2nc(OCC3CCCN3C)nc3c2CCN(c2cccc4cccc(Cl)c24)C3)CC1CC#N (configuration not stated) + CNC(=O)c1ccc(Nc2nc(OC3CCCC3)c3c(-c4ccc5nc(C)oc5c4)c[nH]c3n2)c(OC)c1 | 876862-298-R-J1-PDC complex spheroids, viability % test/control | No |
| CCc1c2c(nc3ccc(O)cc13)-c1cc3c(c(=O)n1C2)COC(=O)[C@]3(O)CC + CN1CCN(c2cc(C(=O)Nc3cc4cc(-c5cnn(C)c5)ccc4cn3)ccn2)CC1 | 876862-298-R-J1-PDC complex spheroids, viability % test/control | Yes |
| COC1C=CCC(C)C(C)S(=O)(=O)NC(=O)c2ccc3c(c2)N(CC2CCC21)CC1(CCCc2cc(Cl)ccc21)CO3 (configuration not stated) + CNC(=O)c1ccc(Nc2nc(OC3CCCC3)c3c(-c4ccc5nc(C)oc5c4)c[nH]c3n2)c(OC)c1 | 876862-298-R-J1-PDC complex spheroids, viability % test/control | No |
